Test details: small-molecule microarray binders of probe aDKK1, primary screen, biochemical, biotinylated probe, 635/667 nm fluorescence (AID 1099);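 note: score merges 667nm spot fluorescence with signal to noise across triplicate slides; reference of the scale not given here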
Condition parameters: higher = more signal
Endpoint: composite z-score
Form: value (number only, do not type unit).

- Molecule: "[N-]=[N+]=NCc1ccccc1[C@@H]1OC(c2ccc(OCCCO)cc2)=N[C@]1(Cc1ccccc1)C(=O)NCc1ccccc1"
  composite z-score: -0.0406

Then there is this molecule:
Q: Recall and state the measured composite z-score for CCCCCN1CC=CC23O[C@@H]4C=CCOC(=O)[C@@H]4[C@H]2C(=O)N(CCCCCO)[C@@H]3C1=O (some centres undefined) .
Ans: -0.181

====

Test details: small-molecule microarray binders of probe aXIP, primary screen, biochemical, NeuroSMM set, 635/667 nm fluorescence (AID 1119);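 note: probe is the protein aXip251-270 applied at 1 µg/mL to compound-printed slides; binding of probe to printed compounds measured as 667 nm fluorescence plus signal to noise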
Condition parameters: higher = more signal, called active from +8 up or from −8 down
Given measured composite Z-score, output class 1 if it is greater than or equal to 0.2 and class 0 if not.

Answered cases to consult:
- Compound: "NC(=O)NCC#Cc1ccc2c(c1)[C@]1(C(=O)N2)[C@H](C(=O)N2CCCCCCC2)[C@H]2C(=O)O[C@H](c3ccccc3)[C@H](c3ccccc3)N2[C@@H]1c1ccc(O)cc1"
  Class: "class 0"
- Compound: "Cc1ccc(S(=O)(=O)N2[C@@H](c3ccccc3)C(C(=O)O)=CC[C@H]2c2ccc(C#N)cc2)cc1"
  Class: "class 1"
- Compound: "COCCOC(=O)N1C(=O)[C@@]2(c3cc(C#Cc4ccc(OC)cc4)ccc31)[C@H](c1ccc(OCCO)cc1)N1[C@H](c3ccccc3)[C@H](c3ccccc3)OC(=O)[C@H]1[C@@H]2C(=O)N1CCCCCCC1"
  Class: "class 1"
- Compound: "CC(C)C[C@@H]1NC(=O)[C@H]2C[C@@H](C(=O)NCCCCCNC(=O)CS)[C@@H](c3ccc(O)cc3)N2C1=O"
  Class: "class 0"

Q: # check: composite Z-score of O=C(NCCO)C1=C[C@H](Oc2ccccc2I)[C@@H](O)[C@H](NCc2ccc(F)cc2)C1 is greater than or equal to 0.2
Ans: class 0

Q: # check: composite Z-score of C=CCC(OC(C)=O)[C@@H]1[C@@H](N(Cc2cc3ccccc3o2)C(=O)c2ccc(-c3ccccc3)cc2)c2cc(OCCCO)ccc2N1C(=O)c1ccc2ccccc2n1 (stereo partly drawn) is greater than or equal to 0.2
Ans: class 0

====

Test details: small-molecule microarray binders of probe aShh, primary screen, biochemical, biotinylated probe, 635/667 nm fluorescence (AID 1114);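 note: probe is biotin-labelled aShh protein from a stem cell growth factor screen; measures binding of labelled protein to compounds printed on the slide; score merges feature fluorescence at 667 nm with signal-to-noise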
Condition parameters: higher = more signal
Reported composite z-score is given for each of the following compounds.

- Compound: "[N-]=[N+]=NCc1ccccc1C[C@@]1(C(=O)O)N=C(c2ccc(OCCCO)cc2)O[C@@H]1c1ccccc1CN=[N+]=[N-]"
  Result: 0.0121
- Compound: "COCCOC(=O)N1C(=O)[C@@]2(c3cc(C#CC4(O)CCCCCC4)ccc31)[C@H](c1ccccc1OCCO)N1[C@H](c3ccccc3)[C@H](c3ccccc3)OC(=O)[C@H]1[C@@H]2C(=O)N1CCCCCCC1"
  Result: 0.661
- Compound: "CC(=O)c1ccc(C(O)C2C=CC3C(=O)NC(=O)C3N2Nc2ccc(Cl)cc2Cl)cc1 (stereo not given)"
  Result: 0.522
- Compound: "CC(c1ccccc1)C(O)C1C=CC2C(=O)N(c3ccccc3)C(=O)C2N1Nc1ccc(C#N)cc1 (stereo not given)"
  Result: 0.156
- Compound: "CCOC(=O)C1=CC[C@@H](c2ccccc2)N(S(=O)(=O)c2ccc(C)cc2)[C@H]1C#N"
  Result: -0.16
- Compound: "C=C(COC)/C(=C/C[C@H](OC(=O)c1ccncc1)c1cccc(OCCO)c1)c1cnc2ccccc2c1"
  Result: 0.235
- Compound: "CCCC=C(CCC)[C@@H](NS(=O)(=O)c1ccc(Cl)cc1)c1ccccc1"
  Result: 0.508
- Compound: "COCCOC(=O)N1C(=O)[C@@]2(c3cc(C#CCC(C(=O)OC)C(=O)OC)ccc31)[C@H](C(=O)N1CCCCCCC1)[C@H]1C(=O)O[C@H](c3ccccc3)[C@H](c3ccccc3)N1[C@@H]2c1ccccc1OCCO"
  Result: 2.96
- Compound: "CN(C)C(=O)[C@@]1(CCS(=O)(=O)c2ccccc2)N=C(c2ccc(OCCCO)cc2)O[C@H]1c1ccccc1N=[N+]=[N-]"
  Result: 0.199
- Compound: "N#Cc1ccc(C(O)C2C=CC3C(=O)N(c4ccccc4)C(=O)C3N2Nc2ccc([N+](=O)[O-])cc2)cc1 (stereo not given)"
  Result: 0.0434

Q: Recall and state the measured composite z-score for [N-]=[N+]=NCc1ccccc1C[C@]1(C(=O)O)COC(c2ccc(OCCCO)cc2)=N1 .
Ans: -0.341

Q: Recall and state the measured composite z-score for COCCCNC(=O)[C@@]1(Sc2ccc(C)cc2)CC(=O)N(C2CCCCC2)[C@@H]1c1ccc(CO)cc1I .
Ans: -0.0362

Q: Recall and state the measured composite z-score for COc1cccc(OC)c1C(=O)O[C@H]1[C@@H]2OC(=O)[C@H](Cc3cccc(Br)c3)C/C=C/C[C@@H](Cc3cccc(Br)c3)C(=O)O[C@H]2[C@@H](OC)O[C@@H]1CO .
Ans: 0.111

====

Target under test: Follistatin (Homo sapiens)
Test details: follistatin binders on small-molecule microarrays, primary screen, biochemical, small-molecule microarray, 635/667 nm fluorescence (AID 1132)
Condition parameters: FST binding, 635 nm fluorescence, higher = more signal
Reported composite z-score is given for each of the following molecules.

As a guide, the following entries are already answered.
- Molecule: "CN1C(=O)[C@]2(CCS(=O)(=O)c3ccccc3)N=C(c3ccc(OCCCO)cc3)O[C@@H]2c2ccccc21"
  Result: 1.47
- Molecule: "CC=CC(O)C1C=CC2C(=O)N(C)C(=O)C2N1NC(=O)OC(C)(C)C (configuration not stated)"
  Result: 0.767
- Molecule: "C=CCOC(=O)[C@H]1[C@@H]2C(=O)O[C@@H](c3ccccc3)[C@@H](c3ccccc3)N2[C@@H](c2ccc(OCCOC(=O)[C@H]3C[C@H]4C(=O)NCC(=O)N4[C@H]3c3ccc(O)cc3)cc2)[C@]12C(=O)Nc1ccc(I)cc12"
  Result: 1.2

Q: For Follistatin (Homo sapiens), give composite z-score of the listed molecule: C=C(COC)C(=O)CC[C@@H](OC(C)=O)c1ccc(OCCO)cc1
Ans: 1.25

Q: For Follistatin (Homo sapiens), give composite z-score of the listed molecule: COCCOC(=O)N1C(=O)[C@@]2(c3cc(C#CC4=CCCCC4)ccc31)[C@H](c1ccc(OCCO)cc1)N1[C@H](c3ccccc3)[C@H](c3ccccc3)OC(=O)[C@H]1[C@@H]2C(=O)N1CCCCCCC1
Ans: 1.41

Q: For Follistatin (Homo sapiens), give composite z-score of the listed molecule: NC(=O)N1C(=O)C2C(C1=O)C1C=C(CCCO)C2C(c2ccc(CN3CCCC3)cc2)N1Cc1cccc(OC(F)(F)F)c1 (configuration not stated)
Ans: 1.05

Q: For Follistatin (Homo sapiens), give composite z-score of the listed molecule: O=C1C2C=CC(C(O)c3cccs3)N(Nc3ccccc3)C2C(=O)N1c1ccccc1 (configuration not stated)
Ans: 0.761

====

Test details: osmotic lysis modulators in infected erythrocytes, primary screen, PSAC antagonist project, cell-based, P. falciparum Indochina, OD700, 3 h (AID 1156)
Condition parameters: higher = more signal, called active from +8 up or from −8 down
Given measured z-score, output t if it is greater than or equal to 0.06 and f if not.

Answered cases to consult:
- Compound: "C=CCC(OC(C)=O)[C@@H]1[C@@H](N(Cc2ccc(-c3cccc(C(F)(F)F)c3)o2)C(=O)Cc2ccc(F)cc2)c2cc(OCCCO)ccc2N1C(=O)c1ccc2ccccc2c1 (some centres undefined)"
  Class: "t"
- Compound: "CCOC(=O)C1=C(C(=O)OCC)N(S(=O)(=O)CC[Si](C)(C)C)[C@H](c2ccccc2)CC1"
  Class: "t"
- Compound: "CC(=O)NCCCC[C@@H]1NC(=O)[C@@H]2C[C@H](C(=O)NCCCCCC[N+](C)(C)C)[C@H](c3ccc(O)cc3)N2C1=O"
  Class: "f"
- Compound: "C=C(COC)/C(=C/C[C@@H](OC(C)=O)c1ccccc1OCCO)c1cc(C(=O)OC)ccc1OC"
  Class: "t"
- Compound: "NC(=O)N1C(=O)C2C(C1=O)C1C=C(CCCO)C2C(c2ccc(CN3CCCC3)cc2)N1Cc1cccc(OC(F)(F)F)c1 (centres undefined)"
  Class: "t"

Next up:
Q: # check: z-score of COCCOC(=O)N1C(=O)[C@@]2(c3cc(C#CC4(O)CCCCCC4)ccc31)[C@H](C(=O)NC[C@H](O)c1ccccc1)[C@H]1C(=O)O[C@H](c3ccccc3)[C@H](c3ccccc3)N1[C@@H]2c1ccc(O)cc1 is greater than or equal to 0.06
Ans: t
